Assayed target: T1, hPIV-3 hemagglutinin-neuraminidase (HN), expressed on transfected HEK293T cells (human parainfluenza virus 3 (hPIV-3), UniProt P08492 1-572)
T1 construct: also called hPIV-3 HN; HN3
T1 chain: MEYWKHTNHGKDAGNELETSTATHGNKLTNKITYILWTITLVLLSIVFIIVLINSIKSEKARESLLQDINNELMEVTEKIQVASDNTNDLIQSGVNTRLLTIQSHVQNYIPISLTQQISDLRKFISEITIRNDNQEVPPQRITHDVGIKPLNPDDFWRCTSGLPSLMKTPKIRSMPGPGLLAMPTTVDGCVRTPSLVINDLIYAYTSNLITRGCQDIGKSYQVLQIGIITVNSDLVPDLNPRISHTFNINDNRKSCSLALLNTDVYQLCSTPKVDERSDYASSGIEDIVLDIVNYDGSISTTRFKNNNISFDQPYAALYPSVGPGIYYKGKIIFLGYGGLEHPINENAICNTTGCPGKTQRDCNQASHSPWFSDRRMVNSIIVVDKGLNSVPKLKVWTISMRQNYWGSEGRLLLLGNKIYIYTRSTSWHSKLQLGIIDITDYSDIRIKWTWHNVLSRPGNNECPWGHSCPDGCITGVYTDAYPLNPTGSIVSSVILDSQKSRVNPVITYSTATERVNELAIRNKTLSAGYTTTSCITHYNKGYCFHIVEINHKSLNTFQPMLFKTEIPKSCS
Protocol summary: flow cytometry on transfected HEK293T cells, 10 µg/ml (FIG. 16A)
Measurement type: binding result

humanized A2R3-59-Fc construct version 1 (Fc fusion, also called h59-Fc; A2R3-h59-Fc) DVQLVESGGGLVQPGGSLRLSCAASGSISGINGMGWYRQAPGKQRELVAAITSGGSTNYADSVKGRFTISRDNAKNTVYLQMNSLRPEDTAVYYCYVSSTPSWGLYDDYWGQGTLVTVSSGGGGSGGGGSDKTHTCPPCPAPEAAGGPSVFLFPPKPKDTLMISRTPEVTCVVVDVSHEDPEVKFNWYVDGVEVHNAKTKPREEQYNSTYRVVSVLTVLHQDWLNGKEYKCKVSNKALGAPIEKTISKAKGQPREPQVYTLPPSRDELTKNQVSLTCLVKGFYPSDIAVEWESNGQPENNYKTTPPVLDSDGSFFLYSKLTVDKSRWQQGNVFSCSVMHEALHNHYTQKSLSLSPG : binds
bivalent VHH A2R3-60-60 (VHH, also called bivalent A2R3-60) QVQLQESGGGLVQPGGSLRLDCAASGTTVSINGMGWYRQAPGKQREFVALSTTGGVTNYADSVKGRFTISMDNAKKTVALQMNSLKPEDTAVYYCNAVASPSWGLYDDYWGQGTQVTVSSGGGGSGGGGSGGGGSQVQLQESGGGLVQPGGSLRLDCAASGTTVSINGMGWYRQAPGKQREFVALSTTGGVTNYADSVKGRFTISMDNAKKTVALQMNSLKPEDTAVYYCNAVASPSWGLYDDYWGQGTQVTVSS : binds
humanized A2R3-60-Fc construct version 1 (Fc fusion, also called A2R3-h60-Fc; h60-Fc) DVQLVESGGGLVQPGGSLRLSCAASGTTVSINGMGWYRQAPGKQREFVALSTTGGVTNYADSVKGRFTISRDNAKNTVYLQMNSLRPEDTAVYYCNAVASPSWGLYDDYWGQGTLVTVSSGGGGSGGGGSDKTHTCPPCPAPEAAGGPSVFLFPPKPKDTLMISRTPEVTCVVVDVSHEDPEVKFNWYVDGVEVHNAKTKPREEQYNSTYRVVSVLTVLHQDWLNGKEYKCKVSNKALGAPIEKTISKAKGQPREPQVYTLPPSRDELTKNQVSLTCLVKGFYPSDIAVEWESNGQPENNYKTTPPVLDSDGSFFLYSKLTVDKSRWQQGNVFSCSVMHEALHNHYTQKSLSLSPG : binds
